# Protocol: solubility in pharmaceutically acceptable solvent systems, HPLC assay of filtrate
# Assay type: physicochemical
# Test Parameters: 50% ethanol by volume in water, aqueous with cosolvent or surfactant or cyclodextrin, thermodynamic from solid; ETHANOL (50%) by volume in water; read-out: Solubility
Recorded measurements of solubility, one per entry
Your answer is read as mg/mL, so omit the unit and give the number.

### Prompt Could you share which solubility value was measured for C[C@H](N[P@@](=O)(OC[C@H]1O[C@@H](n2ccc(N)nc2=O)C(F)(F)[C@@H]1O)Oc1ccccc1)C(=O)OCc1ccccc1 ?
### Response 0.69

### Prompt Same thing, different compound: C[C@H](N[P@](=O)(OC[C@H]1O[C@@H](n2ccc(N)nc2=O)C(F)(F)C1O)Oc1ccccc1)C(=O)OCc1ccccc1 (some centres unmarked)
### Response 34.8

###

# Protocol: solubility in pharmaceutically acceptable solvent systems, HPLC assay of filtrate
# Assay type: physicochemical
# Test Parameters: organic solvent or mixture, thermodynamic from solid; solvent Propylene glycol; read-out: Assay (solubility)
Quantity: solubility (mg/mL)
Provide only the numeric value, understood in mg/mL.

### Prompt Request the reported solubility associated with C[C@H](NP(=O)(OC[C@H]1O[C@@H](n2ccc(N)nc2=O)C(F)(F)C1O)Oc1ccccc1)C(=O)OCc1ccccc1 (stereo partly shown)
### Response 371

###

# Protocol: solubility in pharmaceutically acceptable solvent systems, HPLC assay of filtrate
# Assay type: physicochemical
# Test Parameters: organic solvent or mixture, thermodynamic from solid; solvent PEG 400; read-out: Assay (solubility)
# Description: The solubilities of NUC-1031 and its diastereoisomers were determined in a range of pharmaceutically acceptable solvent systems. The protocol adopted was as follows: A small volume, 1-2 mL, of each solvent system was prepared and a weight of the compound in question was added. The solutions were stirred for approximately 4 hours and then […] membrane filtered. The concentration of the compound in question in the filtrate was then determined by HPLC assay.
Quantity: solubility (mg/mL)
# output: bare number, implied unit mg/mL

### Prompt Would you mind telling me what solubility value was observed for C[C@H](NP(=O)(OC[C@H]1O[C@@H](n2ccc(N)nc2=O)C(F)(F)C1O)Oc1ccccc1)C(=O)OCc1ccccc1 (stereo partly shown) ?
### Response 385

###

# Protocol: metabolic stability in pooled human cryopreserved hepatocyte suspension, HPLC-MS/MS
# Format: in vitro ADME
# Test Parameters: both sexes, human, hepatocytes, pH 7.3, Half-Life 2nd
Quantity: half-life at 1 μM (h)
Kindly provide the numeric value in h only, without the unit symbol.

> print(dat)
                                   compound           quantity  test.result
1  C[C@H](N[P@](=O)(OC[C@H]1O[C@@H](n2ccc(N)nc2=O)C(F)(F)C1O)Oc1ccccc1)C(=O)OCc1ccccc1 (stereo partly drawn)  half-life at 1 μM        0.608

### Prompt What half-life at 1 μM value was documented for this compound, C[C@H](NP(=O)(OC[C@H]1O[C@@H](n2ccc(N)nc2=O)C(F)(F)C1O)Oc1ccccc1)C(=O)OCc1ccccc1 (stereo partly drawn) ?
### Response 1.21

###

# Protocol: solubility in pharmaceutically acceptable solvent systems, HPLC assay of filtrate
# Assay type: physicochemical
# Test Parameters: 50% PEG400 by volume in water, aqueous with cosolvent or surfactant or cyclodextrin, thermodynamic from solid; PEG400 (50%) by volume in water; read-out: Solubility
Quantity: solubility (mg/mL)
Reply numerically in mg/mL, unit not repeated.

> print(dat)
                                   compound  test.result
1  C[C@H](N[P@@](=O)(OC[C@H]1O[C@@H](n2ccc(N)nc2=O)C(F)(F)[C@@H]1O)Oc1ccccc1)C(=O)OCc1ccccc1         0.27

# next compound below
### Prompt Any idea what solubility was measured for C[C@H](N[P@](=O)(OC[C@H]1O[C@@H](n2ccc(N)nc2=O)C(F)(F)C1O)Oc1ccccc1)C(=O)OCc1ccccc1 (some centres unmarked) ?
### Response 32.1

###

# Protocol: solubility in pharmaceutically acceptable solvent systems, HPLC assay of filtrate
# Type: physicochemical
# Test Parameters: 50% propylene glycol by volume in water, aqueous with cosolvent or surfactant or cyclodextrin, thermodynamic from solid; PROPYLENE GLYCOL (50%) by volume in water; read-out: Solubility
Quantity: solubility (µg/mL)
// return numeric value only (unit: µg/mL, not printed)

> print(dat)
                                   compound    quantity  test.result
1  C[C@H](N[P@](=O)(OC[C@H]1O[C@@H](n2ccc(N)nc2=O)C(F)(F)C1O)Oc1ccccc1)C(=O)OCc1ccccc1 (some centres unmarked)  solubility        11300

With those in mind, consider the next compound.
### Prompt Endpoint output: solubility of C[C@H](N[P@@](=O)(OC[C@H]1O[C@@H](n2ccc(N)nc2=O)C(F)(F)[C@@H]1O)Oc1ccccc1)C(=O)OCc1ccccc1 . Value?
### Response 110

###

# Protocol: metabolic stability in pooled human cryopreserved hepatocyte suspension, HPLC-MS/MS
# Assay type: in vitro ADME
# Test Parameters: both sexes, human, hepatocytes, pH 7.3, Half-Life Mean
Quantity: half-life at 1 μM

### Prompt Entry under review: C[C@H](N[P@@](=O)(OC[C@H]1O[C@@H](n2ccc(N)nc2=O)C(F)(F)[C@@H]1O)Oc1ccccc1)C(=O)OCc1ccccc1 [compound 4] . Reported half-life at 1 μM?
### Response > 2 h

###

# Protocol: metabolic stability in pooled human cryopreserved hepatocyte suspension, HPLC-MS/MS
# Format: in vitro ADME
# Test Parameters: both sexes, human, hepatocytes, pH 7.3, Half-Life 1st
// half-life at 1 μM lookup, one value per entry
// note: answer is a bare numeric in min

> print(dat)
                                   compound  test.result
1  C[C@H](N[P@@](=O)(OC[C@H]1O[C@@H](n2ccc(N)nc2=O)C(F)(F)[C@@H]1O)Oc1ccccc1)C(=O)OCc1ccccc1          472
2  C[C@H](N[P@](=O)(OC[C@H]1O[C@@H](n2ccc(N)nc2=O)C(F)(F)C1O)Oc1ccccc1)C(=O)OCc1ccccc1 (stereo partly drawn)         40.5

Field: next compound
### Prompt // lookup half-life at 1 μM for C[C@H](NP(=O)(OC[C@H]1O[C@@H](n2ccc(N)nc2=O)C(F)(F)C1O)Oc1ccccc1)C(=O)OCc1ccccc1 (stereo partly drawn)
### Response 72.9

###

# Protocol: solubility in pharmaceutically acceptable solvent systems, HPLC assay of filtrate
# Assay type: physicochemical
# Test Parameters: organic solvent or mixture, thermodynamic from solid; solvent DMSO; read-out: Assay (solubility)
# Protocol: The solubilities of NUC-1031 and its diastereoisomers were determined in a range of pharmaceutically acceptable solvent systems. The protocol adopted was as follows: A small volume, 1-2 mL, of each solvent system was prepared and a weight of the compound in question was added. The solutions were stirred for approximately 4 hours and then […] membrane filtered. The concentration of the compound in question in the filtrate was then determined by HPLC assay.
Quantity: solubility

### Prompt Consider the compound C[C@H](NP(=O)(OC[C@H]1O[C@@H](n2ccc(N)nc2=O)C(F)(F)C1O)Oc1ccccc1)C(=O)OCc1ccccc1 (stereo partly shown) [NUC-1031] and give its measured solubility.
### Response > 217 mg/mL

###

# Protocol: metabolic stability in pooled human cryopreserved hepatocyte suspension, HPLC-MS/MS
# Format: in vitro ADME
# Test Parameters: both sexes, human, hepatocytes, pH 7.3, Half-Life 3rd
# Description: The clearance and bioavailability of most medicines are strongly influenced by their first-pass metabolism in the liver. […] Samples are analyzed via (RP)HPLC-MS/MS using selected reaction monitoring (SRM). […] Peak areas corresponding to the test compound are recorded by HPLC-MS/MS. The metabolic stability, expressed as percent of the test compound remaining, is calculated by comparing the peak areas of the test compound at 2 hours to time zero. […]
Quantity: half-life at 1 μM

> print(dat)
                                   molecule           quantity  test.result
1  C[C@H](N[P@](=O)(OC[C@H]1O[C@@H](n2ccc(N)nc2=O)C(F)(F)C1O)Oc1ccccc1)C(=O)OCc1ccccc1 (stereo partly drawn) [compound 3]  half-life at 1 μM       35 min
2  C[C@H](NP(=O)(OC[C@H]1O[C@@H](n2ccc(N)nc2=O)C(F)(F)C1O)Oc1ccccc1)C(=O)OCc1ccccc1 (stereo partly drawn) [NUC-1031]  half-life at 1 μM     82.2 min

Moving on to the next molecule.
### Prompt I have this molecule here, C[C@H](N[P@@](=O)(OC[C@H]1O[C@@H](n2ccc(N)nc2=O)C(F)(F)[C@@H]1O)Oc1ccccc1)C(=O)OCc1ccccc1 [compound 4] , and I need its recorded half-life at 1 μM.
### Response > 120 min
